These measurements were taken from patent US20040186179A1.

- assay.explanation: Pharmacokinetics in osteoarthritis patients, plasma concentrations by LC/MS
- Type: in vivo, human
- condition: both sexes, human, plasma, po, 200 mg, 200 mg bid oral, day 0; read-out: AUC0-6
- Procedure: A four week multicenter randomized double-blind double-dummy placebo-controlled parallel group trial (the study) of four dosing regimens of 5-methyl-2-(2′-chloro-6′-fluoroanilino)phenylacetic acid in patients with knee or hip primary osteoarthritis is performed, using diclofenac as a comparator. […]
measure: AUC(0-t) (ng·h/mL)
Respond numerically; units are ng·h/mL and should not be typed.

Problem: Recorded AUC(0-t) of Cc1ccc(Nc2c(F)cccc2Cl)c(CC(=O)O)c1 , please.
Result: 11700

----------
- assay.explanation: Pharmacokinetics in osteoarthritis patients, plasma concentrations by LC/MS
- Type: in vivo, human
- condition: both sexes, human, plasma, po, 50 mg, 50 mg bid oral, day 0
measure: Cmax

Problem: Recorded Cmax of Cc1ccc(Nc2c(F)cccc2Cl)c(CC(=O)O)c1 , please.
Result: 914 ng/mL

----------
- assay.explanation: Pharmacokinetics in osteoarthritis patients, plasma concentrations by LC/MS
- Type: in vivo, human
- condition: both sexes, human, plasma; 100 mg bid oral, day 28
measure: AUC (ng·h/mL)
Respond numerically; units are ng·h/mL and should not be typed.

Problem: Recorded AUC of Cc1ccc(Nc2c(F)cccc2Cl)c(CC(=O)O)c1 , please.
Result: 8100

----------
- assay.explanation: Pharmacokinetics in osteoarthritis patients, plasma concentrations by LC/MS
- Format: in vivo, human
- condition: both sexes, human, plasma, po, 50 mg, 50 mg bid oral, day 0; read-out: AUC0-6
measure: AUC(0-t) (ng·h/mL)
Respond numerically; units are ng·h/mL and should not be typed.

Problem: Recorded AUC(0-t) of Cc1ccc(Nc2c(F)cccc2Cl)c(CC(=O)O)c1 , please.
Result: 2680

----------
- assay.explanation: Pharmacokinetics in osteoarthritis patients, plasma concentrations by LC/MS
- Type: in vivo, human
- condition: both sexes, human, plasma, po, 400 mg, 400 mg qd oral, day 28; read-out: tmax
measure: Tmax (h)
Respond numerically; units are h and should not be typed.

Problem: Recorded Tmax of Cc1ccc(Nc2c(F)cccc2Cl)c(CC(=O)O)c1 , please.
Result: 2

----------
- assay.explanation: Pharmacokinetics in osteoarthritis patients, plasma concentrations by LC/MS
- Type: in vivo, human
- condition: both sexes, human, plasma, po, 100 mg, 100 mg bid oral, day 0
measure: Cmax (ng/mL)
Respond numerically; units are ng/mL and should not be typed.

Problem: Recorded Cmax of Cc1ccc(Nc2c(F)cccc2Cl)c(CC(=O)O)c1 , please.
Result: 1790

----------
- assay.explanation: Pharmacokinetics in osteoarthritis patients, plasma concentrations by LC/MS
- Type: in vivo, human
- condition: both sexes, human, plasma, po, 100 mg, 100 mg bid oral, day 28; read-out: tmax
measure: Tmax (h)
Respond numerically; units are h and should not be typed.

Problem: Recorded Tmax of Cc1ccc(Nc2c(F)cccc2Cl)c(CC(=O)O)c1 , please.
Result: 2

----------
- assay.explanation: Pharmacokinetics in osteoarthritis patients, plasma concentrations by LC/MS
- Type: in vivo, human
- condition: both sexes, human, plasma, po, 400 mg, 400 mg qd oral, day 28; read-out: AUC0-6
measure: AUC(0-t) (ng·h/mL)
Respond numerically; units are ng·h/mL and should not be typed.

Problem: Recorded AUC(0-t) of Cc1ccc(Nc2c(F)cccc2Cl)c(CC(=O)O)c1 , please.
Result: 15300
